target: human recombinant Monoacylglycerol Lipase (Homo sapiens); experiment: MAGL inhibition enzymatic assay, fluorogenic substrate 7-HCA, IC50 at T=0 min or after 30 minute incubation (T=30 min); format: biochemical; conditions: T = 0 min (substrate added immediately); geometric mean of 2-4 determinations unless otherwise indicated; read-out: MAGL (T = 0 min) IC50
Sequence (Q99685 whole entry): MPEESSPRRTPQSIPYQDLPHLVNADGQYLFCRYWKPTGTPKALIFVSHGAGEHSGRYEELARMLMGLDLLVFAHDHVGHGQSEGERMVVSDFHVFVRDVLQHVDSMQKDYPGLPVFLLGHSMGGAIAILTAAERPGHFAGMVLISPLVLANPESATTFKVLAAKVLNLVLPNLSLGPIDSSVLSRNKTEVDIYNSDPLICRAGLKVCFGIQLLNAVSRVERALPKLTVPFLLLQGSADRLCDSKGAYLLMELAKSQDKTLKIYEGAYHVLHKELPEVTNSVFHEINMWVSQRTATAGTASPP
# note: exactly 0.2 µM is not below, so it is No; use Yes for IC50 strictly under it

{"compound": "O=C(OC(C(F)(F)F)C(F)(F)CO)N1CCC2(CC1)CN(S(=O)(=O)c1ccc(F)cc1)CCO2 (single isomer, unassigned; ent-2) [Example 21]", "class": "No"}
{"compound": "CN(C(=O)c1ccccc1)C1COC2(CCN(C(=O)O[C@H](CO)C(F)(F)F)CC2)C1 (single isomer, unassigned) [Example 100]", "class": "Yes"}
{"compound": "O=C(O[C@H](CO)C(F)(F)F)N1CCC(Oc2ccc(CO)cn2)CC1", "class": "No"}
{"compound": "CN([C@@H]1COC2(CCN(C(=O)O[C@H](CO)C(F)(F)F)CC2)C1)S(=O)(=O)C1CC1", "class": "No"}
{"compound": "CN([C@H]1COC2(CCN(C(=O)O[C@H](CO)C(F)(F)F)CC2)C1)S(=O)(=O)CC1CC1", "class": "No"}
{"compound": "CC1N(S(=O)(=O)c2ccc(F)cc2)CCOC12CCN(C(=O)O[C@H](CO)C(F)(F)F)CC2 (single isomer, unassigned) [Example 71]", "class": "Yes"}
{"compound": "CN(C(=O)C1CCC1)[C@H]1COC2(CCN(C(=O)O[C@H](CO)C(F)(F)F)CC2)C1", "class": "Yes"}

###

Collected IC50 values appear next to each entry.
target: human recombinant FAAH (Homo sapiens); test: FAAH inhibition enzymatic assay, fluorescent substrate Arachidonoyl-AMC, 30 minute incubation; conditions: T = 30 min (30 minute incubation); geometric mean of 2-4 determinations unless otherwise indicated
Sequence (O00519 whole entry): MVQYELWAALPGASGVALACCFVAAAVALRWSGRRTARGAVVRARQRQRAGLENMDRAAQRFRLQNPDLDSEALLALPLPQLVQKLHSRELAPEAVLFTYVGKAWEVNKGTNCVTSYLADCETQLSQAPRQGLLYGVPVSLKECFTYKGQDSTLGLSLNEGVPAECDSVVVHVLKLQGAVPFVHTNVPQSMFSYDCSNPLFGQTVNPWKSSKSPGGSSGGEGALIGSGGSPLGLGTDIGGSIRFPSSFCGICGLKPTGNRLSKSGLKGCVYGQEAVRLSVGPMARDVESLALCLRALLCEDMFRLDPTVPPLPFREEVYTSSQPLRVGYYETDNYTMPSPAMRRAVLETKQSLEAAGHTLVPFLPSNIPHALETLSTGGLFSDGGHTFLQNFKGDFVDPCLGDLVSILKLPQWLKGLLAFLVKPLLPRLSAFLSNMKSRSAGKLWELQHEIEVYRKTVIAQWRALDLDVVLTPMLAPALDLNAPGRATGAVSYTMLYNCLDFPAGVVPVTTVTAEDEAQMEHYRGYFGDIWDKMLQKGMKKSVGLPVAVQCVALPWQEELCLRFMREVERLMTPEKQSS

{"mol-smiles": "CN([C@H]1COC2(CCN(C(=O)O[C@H](CO)C(F)(F)F)CC2)C1)S(=O)(=O)CC(F)(F)F", "IC50": "> 30 µM"}
{"mol-smiles": "O=C(O[C@H](CO)C(F)(F)F)N1CCC2(CC1)CCN(C(=O)N1CCCC1)C2", "IC50": "4.75 µM"}
{"mol-smiles": "O=C(O[C@H](CO)C(F)(F)F)N1CCC2(CC1)CCN(C(=O)c1nccs1)C2", "IC50": "> 30 µM"}
{"mol-smiles": "CN([C@H]1COC2(CCN(C(=O)O[C@H](CO)C(F)(F)F)CC2)C1)S(=O)(=O)CC1CC1", "IC50": "> 30 µM"}

###

assay: Prodrug in vivo pharmacokinetics in rats after intravenous administration (LC-MS-MS of prodrug and parent); settings: Wistar Hann, rat, in vivo, iv, 1.48 mg/kg, Vdss, Example 31 in plasma; Wistar Hann rats; IV Example 31 at 1.48 mg/kg; Rat 01

{"mol-smiles": "O=C(O[C@H](COP(=O)([O-])[O-])C(F)(F)F)N1CCC2(CC1)C[C@@H](NS(=O)(=O)c1ccccc1)CO2.[Na+].[Na+]", "unit-spec": "L/kg", "Vd": 2.86}

###

target: human recombinant Monoacylglycerol Lipase (Homo sapiens); experiment: MAGL inhibition enzymatic assay, fluorogenic substrate 7-HCA, IC50 at T=0 min or after 30 minute incubation (T=30 min); assay type: biochemical; settings: T = 30 min (30 minute incubation); geometric mean of 2-4 determinations unless otherwise indicated; read-out: MAGL (T = 30 min) IC50
Collected IC50 values appear next to each entry.
measure: IC50

{"compound": "C#Cc1ccc(-n2ccc([C@H]3[C@@H]4CN(C(=O)O[C@@H](CO)C(F)(F)F)C[C@@H]43)n2)cc1", "study-system": "human recombinant Monoacylglycerol Lipase (Homo sapiens)", "measure": "IC50", "reported-measurement": "598 nM"}
{"compound": "CC1N(S(=O)(=O)c2ccc(F)cc2)CCOC12CCN(C(=O)O[C@H](CO)C(F)(F)F)CC2 (single isomer, unassigned) [Example 71]", "study-system": "human recombinant Monoacylglycerol Lipase (Homo sapiens)", "measure": "IC50", "reported-measurement": "17 nM"}
{"compound": "O=C(O[C@H](CO)C(F)(F)F)N1CCC2(CC1)CN(S(=O)(=O)c1cccc(Cl)c1)CCO2", "study-system": "human recombinant Monoacylglycerol Lipase (Homo sapiens)", "measure": "IC50", "reported-measurement": "2 nM"}
{"compound": "C[N+](C)(C)CCOP(=O)([O-])OC[C@@H](OC(=O)N1CCC2(CC1)CN(S(=O)(=O)c1ccc(F)cc1)CCO2)C(F)(F)F", "study-system": "human recombinant Monoacylglycerol Lipase (Homo sapiens)", "measure": "IC50", "reported-measurement": "> 3000 nM"}
{"compound": "O=C(O[C@H](CO)C(F)(F)F)N1C[C@@H]2CN(S(=O)(=O)c3ccc(F)cc3)C[C@@H]2C1", "study-system": "human recombinant Monoacylglycerol Lipase (Homo sapiens)", "measure": "IC50", "reported-measurement": "50 nM"}
{"compound": "O=C(O[C@H](CO)C(F)(F)F)N1CCC2(CC1)CN(S(=O)(=O)CCc1ccccn1)CCO2", "study-system": "human recombinant Monoacylglycerol Lipase (Homo sapiens)", "measure": "IC50", "reported-measurement": "43 nM"}
{"compound": "O=C(O[C@H](CO)C(F)(F)F)N1CCC2(CCCN(Cc3ccc(F)cc3)C2)CC1", "study-system": "human recombinant Monoacylglycerol Lipase (Homo sapiens)", "measure": "IC50", "reported-measurement": "166 nM"}
{"compound": "CN([C@H]1COC2(CCN(C(=O)O[C@H](CO)C(F)(F)F)CC2)C1)S(=O)(=O)CC1CCC1", "study-system": "human recombinant Monoacylglycerol Lipase (Homo sapiens)", "measure": "IC50", "reported-measurement": "9 nM"}
{"compound": "Cc1ccc(CC2COC3(CCN(C(=O)O[C@H](CO)C(F)(F)F)CC3)C2)nc1 (mixture of isomers)", "study-system": "human recombinant Monoacylglycerol Lipase (Homo sapiens)", "measure": "IC50", "reported-measurement": "26 nM"}
{"compound": "O=C(O[C@H](CO)C(F)(F)F)N1CCC2(CC1)CC(N1CCc3ccccc3S1(=O)=O)CO2 (mixture of isomers)", "study-system": "human recombinant Monoacylglycerol Lipase (Homo sapiens)", "measure": "IC50", "reported-measurement": "11 nM"}
{"compound": "COc1ccc(C2COC3(CCN(C(=O)O[C@H](CO)C(F)(F)F)CC3)C2)nc1 (mixture of isomers)", "study-system": "human recombinant Monoacylglycerol Lipase (Homo sapiens)", "measure": "IC50", "reported-measurement": "20 nM"}
{"compound": "O=C(O)C(F)(F)F.O=C(O[C@H](CO)C(F)(F)F)N1CCC(Oc2nccc3ccccc23)CC1 [Example 26, trifluoroacetic acid salt]", "study-system": "human recombinant Monoacylglycerol Lipase (Homo sapiens)", "measure": "IC50", "reported-measurement": "2 nM"}
{"compound": "O=C(O[C@H](CO)C(F)(F)F)N1CCC2(CC1)CC(c1cccc(OC(F)(F)F)c1)CO2 (mixture of isomers)", "study-system": "human recombinant Monoacylglycerol Lipase (Homo sapiens)", "measure": "IC50", "reported-measurement": "0.4 nM"}
{"compound": "O=C(O[C@H](CO)C(F)(F)F)N1CCC(Oc2ncc(C(F)(F)F)cc2Cl)CC1", "study-system": "human recombinant Monoacylglycerol Lipase (Homo sapiens)", "measure": "IC50", "reported-measurement": "1 nM"}
